Measured values drawn from ChEMBL document CHEMBL1201862 for this set.

test system: NCI/ADR-RES; test: NCI tumour cell line growth inhibition, 48 h
Calls of active or inactive are those of the source. Cut-off read from the data, not from the text of the source: active = GI50 up to about 1.1 µM and inactive = higher.
quantityName: GI50

Give NCI/ADR-RES GI50 for Cc1coc2c1C(OC(=O)C(C)C)C1(C)C(C)CCC(O)C1C2=O (stereo not given)
> 100 µM (inactive)

Give NCI/ADR-RES GI50 for "Cc1ccc(NC(=O)/C(Cc2nc3ccc([N+](=O)[O-])cc3nc2O)=N\NC(=O)C[n+]2ccccc2)c(C)c1"
40.9 µM (inactive)

Give NCI/ADR-RES GI50 for C1CCC2C(C1)CCCC2NC1=NCCO1 (stereo not given)
> 100 µM (inactive)

Give NCI/ADR-RES GI50 for N#CC1=C(S)N(C2OC(CO)C(O)C(O)C2O)C(c2ccccc2)=CC1c1ccccc1 (stereo not given)
> 100 µM (inactive)

Give NCI/ADR-RES GI50 for "COc1c2cc(C(C)(C)C)cc1Cc1cccc(c1OCc1cccc([N+](=O)[O-])c1)Cc1cc(C(C)(C)C)cc(c1OC)Cc1cccc(c1OCc1cccc([N+](=O)[O-])c1)Cc1cc(C(C)(C)C)cc(c1OC)Cc1cccc(c1OCc1cccc([N+](=O)[O-])c1)C2"
> 50 µM (inactive)
